# Inhibition per record follows
test system: Cryptococcus neoformans; conditions: Concentration 20 uM; ASSAY_TEST Inhibition of Fungal Growth; detection method Resazurin; Absorption (OD600-OD570); plate type 384well; NBS; CORNING #3640
Description: Antifungal activity against Cryptococcus neoformans H99 ATCC 208821 (CO-ADD:FG_002); MIC in YNB media using NBS plates, by Resazurin OD(600-570)
Results with a measured potency or affinity are listed apart.
Write the answer as a number in %, unit excluded.

MOLECULE	Inhibition (%)
Cc1ccc(NC(=O)NNC(=O)CSC2CCc3ccccc32)c(C)c1 (stereo not given)	-10.98

Q: Quick check: Inhibition on Cryptococcus neoformans, item "O=C(O)c1cc2ccccc2cc1Nc1ccccc1" ?
Result: 17.2

Q: Under Cryptococcus neoformans: Inhibition value of "Cc1nc([N+](=O)[O-])cn1-c1nc2ccccn2c1[N+](=O)[O-]" ?
Result: -6.88

Q: Can you look up Inhibition on Cryptococcus neoformans for "O=C1CCCc2cc3c(cc21)CC1(C3)Cc2cc3c(cc2C1)C(=O)CCC3" ?
Result: -3.34

Q: Given the entry "COc1ccc(OC)c(NC(=O)c2cc3oc4ccccc4c3cc2O)c1" , what Inhibition was observed with Cryptococcus neoformans?
Result: -0.7

Q: Lookup: Inhibition / Cryptococcus neoformans / "O=[N+]([O-])c1cc2cccnc2c2ncccc12"
Result: -9.49

Q: Lab note: need Inhibition with Cryptococcus neoformans for entry "c1ccc(Nc2cccc3c(Nc4ccccc4)cccc23)cc1" , please look it up.
Result: -1.96

Q: Missing value: Inhibition, Cryptococcus neoformans, entry COC1OC2COC(c3ccccc3)OC2C(=O)C1NC(=O)c1ccccc1 (stereo not given) . Fill in?
Result: -18.55

Q: Item "Oc1ncc(I)cc1I" with Cryptococcus neoformans - Inhibition?
Result: 23.72

Q: What Inhibition appears in the records for this molecule with Cryptococcus neoformans? CC(=O)N1C(=O)C2(NCC(C)N2)c2ccccc21 (stereo not given)
Result: -1.95

Q: What measured Inhibition is associated with "Nc1ncnc(N2CCOCC2)n1" on Cryptococcus neoformans?
Result: -5.84
